Data origin, for the record: ChEMBL document CHEMBL5291721

# Test target: 5-hydroxytryptamine receptor 3A (Homo sapiens, UniProt P46098); note: assay procedure not described here
# Sequence (P46098 whole entry): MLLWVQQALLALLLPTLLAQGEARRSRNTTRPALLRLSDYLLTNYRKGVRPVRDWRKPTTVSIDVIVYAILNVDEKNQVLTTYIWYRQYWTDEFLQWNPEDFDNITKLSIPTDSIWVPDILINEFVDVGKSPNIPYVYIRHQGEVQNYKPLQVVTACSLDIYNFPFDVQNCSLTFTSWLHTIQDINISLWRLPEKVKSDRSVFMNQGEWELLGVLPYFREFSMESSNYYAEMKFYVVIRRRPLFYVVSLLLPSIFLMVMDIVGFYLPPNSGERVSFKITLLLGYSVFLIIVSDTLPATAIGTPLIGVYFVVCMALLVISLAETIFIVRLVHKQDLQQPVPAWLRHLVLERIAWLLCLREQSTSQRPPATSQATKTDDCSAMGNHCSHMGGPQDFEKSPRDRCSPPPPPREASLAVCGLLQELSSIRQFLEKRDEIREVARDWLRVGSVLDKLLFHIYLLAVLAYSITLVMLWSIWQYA
# Type: functional
Each item that follows carries a reported AC50.

- Compound: "CCN(CC)CCN1C(=O)CN=C(c2ccccc2F)c2cc(Cl)ccc21 [FLURAZEPAM]"
  AC50: "20 µM"
- Compound: "COc1ccc(-c2noc(CC(=O)O)c2-c2ccc(OC)cc2)cc1 [MOFEZOLAC]"
  AC50: "> 30 µM"
- Compound: "CC(N)C12CC3CC(CC(C3)C1)C2 (stereo not drawn) [RIMANTADINE]"
  AC50: "> 30 µM"
- Compound: "COc1ccccc1OCCNCC(O)COc1cccc2[nH]c3ccccc3c12 (stereo not drawn) [CARVEDILOL]"
  AC50: "> 10 µM"
- Compound: "C/C(=C\\C(=O)OCCCCCCCCC(=O)O)C[C@@H]1OC[C@H](C[C@@H]2O[C@H]2[C@@H](C)[C@H](C)O)[C@@H](O)[C@H]1O [MUPIROCIN]"
  AC50: "> 30 µM"
- Compound: "Cc1cccc(N2CC(CO)OC2=O)c1 (stereo not drawn) [TOLOXATONE]"
  AC50: "> 30 µM"
- Compound: "CN(C)CCC[C@@]1(c2ccc(F)cc2)OCc2cc(C#N)ccc21 [ESCITALOPRAM]"
  AC50: "> 30 µM"
- Compound: "CCCN(CCC)C(=O)Cc1c(-c2ccc(Cl)cc2)nc2ccc(Cl)cn12 [ALPIDEM]"
  AC50: "> 30 µM"
- Compound: "NC(=O)CN1CCCC1=O"
  AC50: "> 30 µM"
- Compound: "CCN1CCCC1CNC(=O)c1cc(S(=O)(=O)CC)c(N)cc1OC (stereo not drawn) [AMISULPRIDE]"
  AC50: "> 30 µM"
- Compound: "C=CC[C@@H]1/C=C(\\C)C[C@H](C)C[C@H](OC)[C@H]2O[C@@](O)(C(=O)C(=O)N3CCCC[C@H]3C(=O)O[C@H](/C(C)=C/[C@@H]3CC[C@@H](O)[C@H](OC)C3)[C@H](C)[C@@H](O)CC1=O)[C@H](C)C[C@@H]2OC [TACROLIMUS ANHYDROUS]"
  AC50: "> 30 µM"
- Compound: "CC12CC3CC(C)(C1)CC(N)(C3)C2 [MEMANTINE]"
  AC50: "> 30 µM"
- Compound: "CC(N)C(O)c1ccccc1 (stereo not drawn) [PHENYLPROPANOLAMINE]"
  AC50: "> 10 µM"
- Compound: "CC(C(=O)O)c1ccc(CC2CCCC2=O)cc1 (stereo not drawn) [LOXOPROFEN]"
  AC50: "> 30 µM"
- Compound: "CCC(C)C(CC)C(N)=O (stereo not drawn) [VALNOCTAMIDE]"
  AC50: "> 30 µM"
- Compound: "Nc1ncn([C@H]2C[C@H](O)[C@@H](CO)O2)c(=O)n1 [DECITABINE]"
  AC50: "> 30 µM"
- Compound: "OCc1cc(C(O)CNCCCCCCOCCCCc2ccccc2)ccc1O (stereo not drawn) [SALMETEROL]"
  AC50: "> 30 µM"
- Compound: "COCC1=C(C(=O)O)N2C(=O)[C@@H](NC(=O)/C(=N\\OC)c3csc(N)n3)[C@H]2SC1 [CEFPODOXIME]"
  AC50: "> 30 µM"
- Compound: "O=C(O)c1ccccc1Nc1cc(Cl)ccc1C(=O)O [LOBENZARIT]"
  AC50: "> 30 µM"
- Compound: "CCC(=O)O[C@]1(C(=O)SCF)[C@H](C)C[C@H]2[C@@H]3C[C@H](F)C4=CC(=O)C=C[C@]4(C)[C@@]3(F)[C@@H](O)C[C@@]21C [FLUTICASONE PROPIONATE]"
  AC50: "> 30 µM"
- Compound: "CC(C)COCC(CN(Cc1ccccc1)c1ccccc1)N1CCCC1 (stereo not drawn) [BEPRIDIL]"
  AC50: "> 30 µM"
- Compound: "O=C1CN=C(c2ccccn2)c2cc(Br)ccc2N1 [BROMAZEPAM]"
  AC50: "> 30 µM"
- Compound: "C[C@@H](Oc1cc(-c2cnn(C3CCNCC3)c2)cnc1N)c1c(Cl)ccc(F)c1Cl [CRIZOTINIB]"
  AC50: "> 30 µM"
- Compound: "CO[C@H]1/C=C/O[C@@]2(C)Oc3c(C)c(O)c4c(O)c(c(/C=N/N5CCN(C)CC5)c(O)c4c3C2=O)NC(=O)/C(C)=C\\C=C\\[C@H](C)[C@H](O)[C@@H](C)[C@@H](O)[C@@H](C)[C@H](OC(C)=O)[C@@H]1C [RIFAMPIN]"
  AC50: "5.2 µM"
- Compound: "CC(C)[C@H](N)C(=O)OCC(CO)OCn1cnc2c(=O)nc(N)[nH]c21 (stereo partly drawn) [VALGANCICLOVIR]"
  AC50: "> 30 µM"
- Compound: "CC(CCc1ccc(O)cc1)NCCc1ccc(O)c(O)c1 (stereo not drawn) [DOBUTAMINE]"
  AC50: "27 µM"
- Compound: "CCOC(=O)O[C@]1(C(=O)OCCl)CC[C@H]2[C@@H]3CCC4=CC(=O)C=C[C@]4(C)[C@H]3[C@@H](O)C[C@@]21C [LOTEPREDNOL ETABONATE]"
  AC50: "> 30 µM"
- Compound: "CN1CCN(C2=Nc3ccccc3Oc3ccc(Cl)cc32)CC1 [LOXAPINE]"
  AC50: "0.38 µM"
- Compound: "Nc1cc(-c2ccncc2)c[nH]c1=O [INAMRINONE]"
  AC50: "> 30 µM"
- Compound: "CC(=O)[C@]1(O)Cc2c(O)c3c(c(O)c2[C@@H](O[C@H]2C[C@H](N)[C@H](O)[C@H](C)O2)C1)C(=O)c1ccccc1C3=O [IDARUBICIN]"
  AC50: "13 µM"
- Compound: "Clc1ccc(C(Cn2ccnc2)OCc2ccsc2Cl)c(Cl)c1 (stereo not drawn) [TIOCONAZOLE]"
  AC50: "> 30 µM"
- Compound: "OC[C@H]1O[C@@](CO)(O[C@H]2O[C@H](CO)[C@@H](O)[C@H](O)[C@H]2O)[C@@H](O)[C@@H]1O [SUCROSE]"
  AC50: "> 30 µM"
- Compound: "C=C[C@H]1C[N@@]2CC[C@H]1C[C@@H]2[C@@H](O)c1ccnc2ccc(OC)cc12 [QUINIDINE]"
  AC50: "> 30 µM"

###

Each item that follows carries a reported AC50.
# Test target: Gamma-aminobutyric acid receptor subunit alpha-1 (Rattus norvegicus); note: assay procedure not described here
# Sequence (P62813 whole entry): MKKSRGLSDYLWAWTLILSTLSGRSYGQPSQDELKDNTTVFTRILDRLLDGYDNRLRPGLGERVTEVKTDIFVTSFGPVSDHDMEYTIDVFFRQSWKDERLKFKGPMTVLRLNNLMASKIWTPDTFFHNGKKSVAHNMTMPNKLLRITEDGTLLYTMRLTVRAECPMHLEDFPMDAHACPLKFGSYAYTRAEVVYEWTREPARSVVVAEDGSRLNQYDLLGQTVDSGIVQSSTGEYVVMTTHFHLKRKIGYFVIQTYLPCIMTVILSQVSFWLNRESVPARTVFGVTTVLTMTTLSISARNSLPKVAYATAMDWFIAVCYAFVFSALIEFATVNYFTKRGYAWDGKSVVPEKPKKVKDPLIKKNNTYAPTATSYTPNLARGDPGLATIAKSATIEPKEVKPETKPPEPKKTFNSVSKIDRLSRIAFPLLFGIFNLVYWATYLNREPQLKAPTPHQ
Value kind: AC50

- Compound: "C[C@@H](NCCCc1cccc(C(F)(F)F)c1)c1cccc2ccccc12"
  Result: "> 30 µM"
- Compound: "CCC(=O)O[C@]1(C(=O)SCF)[C@H](C)C[C@H]2[C@@H]3C[C@H](F)C4=CC(=O)C=C[C@]4(C)[C@@]3(F)[C@@H](O)C[C@@]21C [FLUTICASONE PROPIONATE]"
  Result: "> 30 µM"
- Compound: "C[C@H]1c2cccc(O)c2C(=O)C2=C(O)[C@]3(O)C(=O)C(C(N)=O)=C(O)[C@@H](N(C)C)[C@@H]3[C@@H](O)[C@@H]21"
  Result: "> 10 µM"

###

# Test target: Neuropeptide Y receptor type 2 (Homo sapiens); note: assay procedure not described here
# Sequence (P49146 whole entry): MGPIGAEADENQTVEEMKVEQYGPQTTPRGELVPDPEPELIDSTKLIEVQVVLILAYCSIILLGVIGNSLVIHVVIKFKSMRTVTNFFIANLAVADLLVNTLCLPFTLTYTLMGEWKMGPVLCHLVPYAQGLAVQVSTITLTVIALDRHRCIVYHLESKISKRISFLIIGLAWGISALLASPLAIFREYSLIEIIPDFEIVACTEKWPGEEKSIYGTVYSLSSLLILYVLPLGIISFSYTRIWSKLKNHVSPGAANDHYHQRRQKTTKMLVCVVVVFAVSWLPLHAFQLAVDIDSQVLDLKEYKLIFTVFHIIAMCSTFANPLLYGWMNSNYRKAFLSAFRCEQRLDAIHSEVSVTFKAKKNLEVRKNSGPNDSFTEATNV
Each item that follows carries a reported AC50.

- Compound: "Cn1c(=O)cc(N2CCC[C@@H](N)C2)n(Cc2ccccc2C#N)c1=O"
  Test target: "Neuropeptide Y receptor type 2 (Homo sapiens)"
  AC50: "> 30 µM"
- Compound: "CC12CC3CC(C)(C1)CC(N)(C3)C2 [MEMANTINE]"
  Test target: "Neuropeptide Y receptor type 2 (Homo sapiens)"
  AC50: "> 30 µM"
- Compound: "CO[C@H]1/C=C/O[C@@]2(C)Oc3c(C)c(O)c4c(O)c(c(/C=N/N5CCN(C)CC5)c(O)c4c3C2=O)NC(=O)/C(C)=C\\C=C\\[C@H](C)[C@H](O)[C@@H](C)[C@@H](O)[C@@H](C)[C@H](OC(C)=O)[C@@H]1C"
  Test target: "Neuropeptide Y receptor type 2 (Homo sapiens)"
  AC50: "21.6 µM"
- Compound: "CC(N)C(O)c1ccccc1 (stereo not drawn)"
  Test target: "Neuropeptide Y receptor type 2 (Homo sapiens)"
  AC50: "> 30 µM"
- Compound: "CN(C)CCc1c[nH]c2ccc(Cn3cncn3)cc12"
  Test target: "Neuropeptide Y receptor type 2 (Homo sapiens)"
  AC50: "> 30 µM"
- Compound: "N[C@@H](CC(=O)N1CCn2c(nnc2C(F)(F)F)C1)Cc1cc(F)c(F)cc1F"
  Test target: "Neuropeptide Y receptor type 2 (Homo sapiens)"
  AC50: "> 10 µM"
- Compound: "CC(C)N(CCC(C(N)=O)(c1ccccc1)c1ccccn1)C(C)C (stereo not drawn) [DISOPYRAMIDE]"
  Test target: "Neuropeptide Y receptor type 2 (Homo sapiens)"
  AC50: "> 30 µM"
- Compound: "[H]/N=C(/N)N/C(=N/[H])NCCc1ccccc1"
  Test target: "Neuropeptide Y receptor type 2 (Homo sapiens)"
  AC50: "> 30 µM"
